Reported growth yield values follow for various molecules
Tested on: Trichoderma virens ATCC 9645
method-description: growth yield (OD600) with compound + IPBC relative to untreated control; higher = less growth inhibition
reported-conditions: compound concentration: 100 uM; IPBC concentration: 200 ng/ml; 40 h
Where a name gives a salt, the structure may show the parent alone. In all, about 1,300 compounds went through this assay and about 130 (10%) showed an effect of 50% or more. For the sample, strong results were picked, then their nearest neighbours and some compounds at random.
Express your answer in %, writing the number without its unit.

molecule	readout-label	unit-text	experimental-result
CN(C)CCCN1c2ccccc2CCc2ccccc21 [Imipramine hydrochloride] + CCCCNC(=O)OCC#CI [3-iodo-2-propynyl butylcarbamate (IPBC)]	growth yield	%	81
Clc1ccc2c(c1)C(N1CCNCC1)=Nc1ccccc1O2 [Amoxapine] + CCCCNC(=O)OCC#CI [3-iodo-2-propynyl butylcarbamate (IPBC)]	growth yield	%	81.3

Moving on to the next molecule.
### Prompt Would you mind telling me what growth yield value was observed for COc1ccc(C[C@@H]2c3cc(OC)c(OC)cc3CC[N@+]2(C)CCC(=O)OCCCCCOC(=O)CC[N@@+]2(C)CCc3cc(OC)c(OC)cc3[C@H]2Cc2ccc(OC)c(OC)c2)cc1OC [Cisatracurium besylate] + CCCCNC(=O)OCC#CI [3-iodo-2-propynyl butylcarbamate (IPBC)] ?
### Response 78.3

----------
Test system: Trichoderma virens ATCC 9645
method-description: growth yield (OD600) with compound + IPBC relative to untreated control; higher = less growth inhibition
reported-conditions: compound concentration: 100 uM; IPBC concentration: 200 ng/ml; 40 h
Counter-ions that a name gives are not always drawn. Hit rate of the full screen: of about 1,300 compounds, about 130 (10%) showed an effect of 50% or more. The entries come from a sample that favours strong results as a whole.
Assign Condition met whenever growth yield does not fall below 90%; assign Condition not met whenever it does.

### Prompt Reported growth yield at or above 90%? CCC1(C)CC(=O)NC1=O (stereo not given) [Ethosuximide] + CCCCNC(=O)OCC#CI [3-iodo-2-propynyl butylcarbamate (IPBC)]
### Response Condition met

### Prompt Likewise for CC(C)(C)C(=O)OCOC(=O)[C@@H]1N2C(=O)[C@@H](NC(=O)[C@H](N)c3ccccc3)[C@H]2SC1(C)C [Pivampicillin] + CCCCNC(=O)OCC#CI [3-iodo-2-propynyl butylcarbamate (IPBC)] ?
### Response Condition met

### Prompt Likewise for Cc1cn([C@H]2C=C[C@@H](CO)O2)c(=O)[nH]c1=O [Stavudine] + CCCCNC(=O)OCC#CI [3-iodo-2-propynyl butylcarbamate (IPBC)] ?
### Response Condition met

### Prompt Likewise for CNCC[C@@H](Oc1cccc2ccccc12)c1cccs1 [(R)-Duloxetine hydrochloride] + CCCCNC(=O)OCC#CI [3-iodo-2-propynyl butylcarbamate (IPBC)] ?
### Response Condition not met

----------
System: Trichoderma virens ATCC 9645
method-description: growth yield (OD600) with compound + IPBC relative to untreated control; higher = less growth inhibition
reported-conditions: compound concentration: 100 uM; IPBC concentration: 200 ng/ml; 40 h
Counter-ions that a name gives are not always drawn. About 130 (10%) of roughly 1,300 compounds showed an effect of 50% or more. Only a selection was taken, and strong results are over-represented in it overall.
Assign 1.0 whenever growth yield does not fall below 90%; assign 0.0 whenever it does.

These recorded examples may help you get a feel for the data.
compound	assigned-label
COc1ccc(OC)c(C(O)CNC(=O)CN)c1 (stereo unspecified) [Midodrine hydrochloride] + CCCCNC(=O)OCC#CI [3-iodo-2-propynyl butylcarbamate (IPBC)]	1.0
Oc1c(Cl)cc(Cl)c2cccnc12 [Chloroxine] + CCCCNC(=O)OCC#CI [3-iodo-2-propynyl butylcarbamate (IPBC)]	0.0
O=C(O)c1cccnc1 [Niacin] + CCCCNC(=O)OCC#CI [3-iodo-2-propynyl butylcarbamate (IPBC)]	1.0
Nc1nc(=O)n([C@@H]2CS[C@H](CO)O2)cc1F [(-)-Emtricitabine] + CCCCNC(=O)OCC#CI [3-iodo-2-propynyl butylcarbamate (IPBC)]	0.0
CN(C)C/C=C(/c1ccc(Br)cc1)c1cccnc1 [Zimelidine dihydrochloride monohydrate] + CCCCNC(=O)OCC#CI [3-iodo-2-propynyl butylcarbamate (IPBC)]	0.0
COc1ccccc1O [Guaiacol] + CCCCNC(=O)OCC#CI [3-iodo-2-propynyl butylcarbamate (IPBC)]	1.0

Attention now shifts to the item below.
### Prompt Reported growth yield at or above 90%? Oc1c(I)cc(Cl)c2cccnc12 [Clioquinol] + CCCCNC(=O)OCC#CI [3-iodo-2-propynyl butylcarbamate (IPBC)]
### Response 0.0
